compounds and their reported Absorption/remaining residue with alkanediol
Experiment: Sensory evaluation on the backside of the hand (spreading, fatty/greasy skin feel, absorption), untrained panellists
Conditions: blend with Octocrylene (Neo Heliopan 303); scale 1 to 5
Description: For evaluating the sensory behaviour, liquid lipophilic components specified in the following table were blended with 1,2-heptanediol or 2,3-heptanediol or a mixture of 1,2-heptanediol and 2,3-heptanediol or 1,2-octanediol or 2,3-octanediol or a mixture of 1,2-octanediol and 2,3-octanediol (formulation) in a ratio of 85:15 and assessed by untrained panellists in comparison to the liquid lipophilic component without addition of the specified alkanediols (placebo). […]
# answer = number (no unit)

compound: CCCCCC(O)C(C)O (stereo not shown)
reading: 2.5
//
compound: CCCCCCC(O)CO (stereo not shown)
reading: 3.5
//
compound: CCCCCC(O)CO (stereo not shown)
reading: 3.5

Now for the compound whose Absorption/remaining residue with alkanediol we want.
The compound identified as CCCCC(O)C(C)O (stereo not shown) registered its Absorption/remaining residue with alkanediol at 3.5

---

Test: Sensory evaluation on the backside of the hand (spreading, fatty/greasy skin feel, absorption), untrained panellists
Conditions: blend with Grapeseed Oil; scale 1 to 5
Known Absorption/remaining residue with alkanediol of a selection of compounds

See these solved cases before continuing.
compound: CCCCCC(O)CO (stereo not shown)
reading: 2.8
--
compound: CCCCCCC(O)CO (stereo not shown)
reading: 1.6
--
compound: CCCCCC(O)C(C)O (stereo not shown)
reading: 2.4

The value of Absorption/remaining residue with alkanediol measured for the compound CCCCC(O)C(C)O (stereo not shown) turned out to be 2.2

---

Tested on: Staphylococcus aureus (SA)
Assay: Preservation efficacy test (PET), European Pharmacopoeia 5.1.3
Assay type: cell-based
Settings: 0.1% in shampoo
metricName: number of microorganisms after 7 days
Enter the number alone.

Worked set:
compound: CCCCCC(O)CO (stereo not shown) [1,2-heptanediol]
systemTested: Staphylococcus aureus (SA)
number of microorganisms after 7 days: 10
//
compound: CCCCCCC(O)C(C)O (stereo not shown) [2,3-nonanediol]
systemTested: Staphylococcus aureus (SA)
number of microorganisms after 7 days: 200
//
compound: CCCCCC(O)C(C)O (stereo not shown) [2,3-octanediol]
systemTested: Staphylococcus aureus (SA)
number of microorganisms after 7 days: 1

Now, please, on to the next compound.
In plain terms, CCCCC(O)C(C)O (stereo not shown) [2,3-heptanediol] has a documented number of microorganisms after 7 days of 490

---

Tested on: Pseudomonas aeruginosa (PA)
Test: Preservation efficacy test (PET), European Pharmacopoeia 5.1.3
Assay type: cell-based
Conditions: 0.1% in shampoo
Protocol: The preservation efficacy test (PET) was performed in accordance with European Pharmacopoeia § 5.1.3: The test is a reference European Pharmacopoeia method, that is to be used to evaluate the preservation system of a cosmetic or pharmaceutical preparation. The test consists of challenging the preparation under test, with prescribed inoculums of suitable microorganisms. […]
metricName: number of microorganisms after 7 days

Please review the following examples before continuing.
molecule: CCCCCCC(O)C(C)O (stereo not shown)
number of microorganisms after 7 days: 2,000,000

molecule: CCCCCC(O)C(C)O (stereo not shown)
number of microorganisms after 7 days: 3,700,000

molecule: CCCCC(O)C(C)O (stereo not shown)
number of microorganisms after 7 days: 730,000

For the next question, use this molecule.
Entry CCCCCC(O)CO (stereo not shown) — recorded number of microorganisms after 7 days = 10

---

Assay: Sensory evaluation on the backside of the hand (spreading, fatty/greasy skin feel, absorption), untrained panellists
Conditions: blend with Argan Oil; scale 1 to 5
metricName: Absorption/remaining residue with alkanediol

Example results:
compound: CCCCCC(O)CO (stereo not shown)
reading: 2.8
//
compound: CCCCCCC(O)CO (stereo not shown)
reading: 2.6
//
compound: CCCCCC(O)C(C)O (stereo not shown)
reading: 2.2

response.value for CCCCC(O)C(C)O (stereo not shown) (field: Absorption/remaining residue with alkanediol) = 2.4

---

Assay: Sensory evaluation on the backside of the hand (spreading, fatty/greasy skin feel, absorption), untrained panellists
Details: blend with Olive Oil; scale 1 to 5
metricName: Absorption/remaining residue with alkanediol
Form: value (number only, do not type unit).

compound: CCCCCC(O)CO (stereo not shown)
reading: 2.4

compound: CCCCCCC(O)CO (stereo not shown)
reading: 2.6

compound: CCCCC(O)C(C)O (stereo not shown)
reading: 2

In the following, a different compound is considered.
Input CCCCCC(O)C(C)O (stereo not shown) . Output Absorption/remaining residue with alkanediol: 2.6

---

As shown below, each of these compounds has a reported Absorption/remaining residue with alkanediol value.
Test: Sensory evaluation on the backside of the hand (spreading, fatty/greasy skin feel, absorption), untrained panellists
Settings: blend with Coconut Oil; scale 1 to 5
Lab note: record just the number, no unit beside it.

compound: CCCCC(O)C(C)O (stereo not shown)
reading: 2.4
//
compound: CCCCCCC(O)CO (stereo not shown)
reading: 3
//
compound: CCCCCC(O)CO (stereo not shown)
reading: 2

The reported Absorption/remaining residue with alkanediol of the compound CCCCCC(O)C(C)O (stereo not shown) was 2.6

---

System: Aspergillus brasiliensis (AB)
Test: Preservation efficacy test (PET), European Pharmacopoeia 5.1.3
Type: cell-based
Conditions: 0.1% in shampoo
Known number of microorganisms after 14 days of a selection of molecules

Worked cases, number of microorganisms after 14 days given:
molecule: CCCCCC(O)C(C)O (stereo not shown) [2,3-octanediol]
number of microorganisms after 14 days: 250,000
//
molecule: CCCCCC(O)CO (stereo not shown) [1,2-heptanediol]
number of microorganisms after 14 days: 150,000
//
molecule: CCCCCCC(O)C(C)O (stereo not shown) [2,3-nonanediol]
number of microorganisms after 14 days: 680,000

API: the following record is the query input.
Short answer on Aspergillus brasiliensis (AB) for CCCCC(O)C(C)O (stereo not shown) [2,3-heptanediol] , number of microorganisms after 14 days: 110,000

---

Property: number of microorganisms after 28 days; scope: individual molecules
Test system: Pseudomonas aeruginosa (PA)
Test: Preservation efficacy test (PET), European Pharmacopoeia 5.1.3
Format: cell-based
Settings: 0.1% in shampoo

Recorded results for 3 molecules are shown here.
molecule: CCCCCCC(O)C(C)O (stereo not shown)
number of microorganisms after 28 days: 8,800,000

molecule: CCCCCC(O)CO (stereo not shown)
number of microorganisms after 28 days: 1

molecule: CCCCCC(O)C(C)O (stereo not shown)
number of microorganisms after 28 days: 8,100,000

Now for another entry.
Noted for CCCCC(O)C(C)O (stereo not shown) : its number of microorganisms after 28 days reads 7,000,000

---

System: Staphylococcus aureus (SA)
Assay: Preservation efficacy test (PET), European Pharmacopoeia 5.1.3
Type: cell-based
Settings: 0.1% in shampoo
metricName: number of microorganisms after 2 days

molecule: CCCCCC(O)C(C)O (stereo not shown)
systemTested: Staphylococcus aureus (SA)
number of microorganisms after 2 days: 2,000
//
molecule: CCCCC(O)C(C)O (stereo not shown)
systemTested: Staphylococcus aureus (SA)
number of microorganisms after 2 days: 27,000
//
molecule: CCCCCC(O)CO (stereo not shown)
systemTested: Staphylococcus aureus (SA)
number of microorganisms after 2 days: 10

In the following, a different molecule is considered.
Noted number of microorganisms after 2 days for CCCCCCC(O)C(C)O (stereo not shown) , tested on Staphylococcus aureus (SA): 31,000

---

Below are MIC values recorded for Corynebacterium jeikeium.
Enter your answer as a number in µg/mL; do not include the unit.

compound: CCCCCCCCC(O)C(C)O (centres unmarked) [2,3-Undecanediol, 2,3-undecanediol]
systemTested: Corynebacterium jeikeium
metricName: MIC
reading: 250

Test item CCCCCCCC(O)CO (centres unmarked) [1,2-nonanediol] ; Corynebacterium jeikeium; reported MIC was 2500

The compound CCCCCC(O)C(C)O (centres unmarked) [2,3-octanediol] on Corynebacterium jeikeium: MIC was 5000

---

Experiment: Sensory evaluation on the backside of the hand (spreading, fatty/greasy skin feel, absorption), untrained panellists
Details: blend with Cacao butter vs without
metricName: Absorption/remaining residue Delta
// return a plain number; no unit text

molecule: CCCCC(O)C(C)O (stereo not shown) [2,3-heptanediol]
reading: 0.4

molecule: CCCCCCC(O)CO (stereo not shown) [1,2-octanediol]
reading: 0.6

molecule: CCCCCC(O)C(C)O (stereo not shown) [2,3-octanediol]
reading: 0.8

From here, focus on the item given below.
Sample CCCCCC(O)CO (stereo not shown) [1,2-heptanediol] ; Absorption/remaining residue Delta observed: 0

---

Parameter: Absorption/remaining residue Delta. Scope: all listed entries.
Assay: Sensory evaluation on the backside of the hand (spreading, fatty/greasy skin feel, absorption), untrained panellists
Conditions: blend with Avocado Oil vs without
From the text: For evaluating the sensory behaviour, liquid lipophilic components specified in the following table were blended with 1,2-heptanediol or 2,3-heptanediol or a mixture of 1,2-heptanediol and 2,3-heptanediol or 1,2-octanediol or 2,3-octanediol or a mixture of 1,2-octanediol and 2,3-octanediol (formulation) in a ratio of 85:15 and assessed by untrained panellists in comparison to the liquid lipophilic component without addition of the specified alkanediols (placebo). […]
Respond using a number only.

Worked examples, 3 molecules total:
molecule: CCCCCC(O)CO (stereo not shown)
Absorption/remaining residue Delta: 1.2
//
molecule: CCCCCC(O)C(C)O (stereo not shown)
Absorption/remaining residue Delta: 1.4
//
molecule: CCCCC(O)C(C)O (stereo not shown)
Absorption/remaining residue Delta: 1.4

The measured Absorption/remaining residue Delta associated with CCCCCCC(O)CO (stereo not shown) reads 1.2
